Biological target: Torsin-1A-interacting protein 1 (Homo sapiens) (UniProt Q5JTV8)
Sequence (Q5JTV8 whole entry, looked up): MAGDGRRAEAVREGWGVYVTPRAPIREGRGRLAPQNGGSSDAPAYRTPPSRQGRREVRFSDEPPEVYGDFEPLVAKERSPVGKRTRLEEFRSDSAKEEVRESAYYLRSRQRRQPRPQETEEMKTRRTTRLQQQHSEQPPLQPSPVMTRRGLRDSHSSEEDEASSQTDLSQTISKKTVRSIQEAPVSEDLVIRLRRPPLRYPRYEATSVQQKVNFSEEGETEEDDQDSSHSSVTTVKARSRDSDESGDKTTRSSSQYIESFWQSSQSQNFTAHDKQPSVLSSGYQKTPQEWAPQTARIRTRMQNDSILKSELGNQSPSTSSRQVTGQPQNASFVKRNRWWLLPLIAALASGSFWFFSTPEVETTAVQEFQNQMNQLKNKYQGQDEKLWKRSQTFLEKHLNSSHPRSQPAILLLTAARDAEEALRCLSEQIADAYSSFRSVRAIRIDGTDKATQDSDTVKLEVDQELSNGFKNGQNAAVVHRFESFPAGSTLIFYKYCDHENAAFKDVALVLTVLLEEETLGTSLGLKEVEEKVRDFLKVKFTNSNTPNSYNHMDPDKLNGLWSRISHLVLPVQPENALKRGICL
Assay: LAP1 binders from COS7 cell lysate, primary screen, small-molecule microarray, 635/667 nm fluorescence (AID 1116)
Conditions: COS7-hLAP1 lysate binding, 635 nm fluorescence, higher = more signal
Classify by measured composite z-score: condition met if it is equal to or exceeds 0.2, condition not met if it is smaller.

compound	tested.target	class.name
COCCOC(=O)N1C(=O)[C@@]2(c3cc(C#CCCO)ccc31)[C@H](C(N)=O)[C@H]1C(=O)O[C@H](c3ccccc3)[C@H](c3ccccc3)N1[C@@H]2c1ccc(O)cc1	Torsin-1A-interacting protein 1 (Homo sapiens) (UniProt Q5JTV8)	condition not met
CCc1cccc(NC(=O)O[C@H]2[C@H](OC(=O)Nc3ccccc3-c3ccccc3)[C@@H](OC(=O)Nc3ccccc3-c3ccccc3)[C@@H](OC)O[C@@H]2CO)c1	Torsin-1A-interacting protein 1 (Homo sapiens) (UniProt Q5JTV8)	condition met
O=C1O[C@@H](c2ccccc2)[C@@H](c2ccccc2)N2[C@@H](c3ccccc3OCCO)[C@]3(C(=O)Nc4ccc(C#CC5=CCCCC5)cc43)[C@@H](C(=O)N3CCCCCCC3)[C@H]12	Torsin-1A-interacting protein 1 (Homo sapiens) (UniProt Q5JTV8)	condition met
CCC(CC)C(O)C1C=CC2C(=O)NC(=O)C2N1Nc1ccccn1 (stereo unspecified)	Torsin-1A-interacting protein 1 (Homo sapiens) (UniProt Q5JTV8)	condition met
COC(=O)[C@@]1(Cc2ccc(F)cc2)[C@H]2c3cc(C(=O)N(C)C)n(Cc4ccccc4)c3C[C@H]2CN1C(=O)c1ccccc1	Torsin-1A-interacting protein 1 (Homo sapiens) (UniProt Q5JTV8)	condition not met
CC(C)C[C@@H]1NC(=O)[C@@H]2C[C@H](C(=O)NCc3ccc(F)cc3)[C@H](c3cccc(OCCO)c3)N2C1=O	Torsin-1A-interacting protein 1 (Homo sapiens) (UniProt Q5JTV8)	condition not met

----------
Molecular target: Torsin-1A-interacting protein 2 (Homo sapiens) (UniProt Q8NFQ8)
Sequence (Q8NFQ8 whole entry, looked up): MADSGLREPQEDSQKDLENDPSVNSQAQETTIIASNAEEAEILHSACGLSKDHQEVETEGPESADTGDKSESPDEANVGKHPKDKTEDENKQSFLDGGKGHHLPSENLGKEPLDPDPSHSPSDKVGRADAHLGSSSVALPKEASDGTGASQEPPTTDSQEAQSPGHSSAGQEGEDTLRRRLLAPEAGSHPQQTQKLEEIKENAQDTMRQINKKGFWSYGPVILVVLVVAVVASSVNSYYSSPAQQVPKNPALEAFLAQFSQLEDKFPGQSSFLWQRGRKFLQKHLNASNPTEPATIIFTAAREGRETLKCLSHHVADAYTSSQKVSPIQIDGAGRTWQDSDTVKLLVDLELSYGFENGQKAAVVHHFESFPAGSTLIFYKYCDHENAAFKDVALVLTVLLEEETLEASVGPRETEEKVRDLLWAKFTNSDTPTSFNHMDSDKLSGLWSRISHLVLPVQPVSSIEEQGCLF
Experiment: LULL1 binders on small-molecule microarray, primary screen, cell lysate, human LULL1 lysate, 635/667 nm fluorescence (AID 1092);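 further: probe is lysate of COS7 cells overexpressing human LULL1; score merges per-feature 667 nm fluorescence with signal-to-noise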
Details: hLULL1 lysate binding, 635 nm fluorescence, higher = more signal
Give 1 (yes) when the value for composite z-score is at least 3. Give 0 (no) when it is less.

compound	tested.target	class.name
C=C(CCCC)/C(=C/C[C@@H](OC(C)=O)c1ccc(OCCO)cc1)c1cnc2ccccc2c1	Torsin-1A-interacting protein 2 (Homo sapiens) (UniProt Q8NFQ8)	0 (no)
C=CCOC(=O)[C@H]1[C@@H]2C(=O)O[C@@H](c3ccccc3)[C@@H](c3ccccc3)N2[C@@H](c2ccc(OCCOC(=O)[C@@H]3C[C@@H]4C(=O)N[C@@H](CCCCNC(C)=O)C(=O)N4[C@@H]3c3ccc(O)cc3)cc2)[C@]12C(=O)Nc1ccccc12	Torsin-1A-interacting protein 2 (Homo sapiens) (UniProt Q8NFQ8)	0 (no)
[N-]=[N+]=NCc1ccccc1[C@@H]1OC(c2ccc(OCCCO)cc2)=N[C@]1(Cc1ccccc1)C(N)=O	Torsin-1A-interacting protein 2 (Homo sapiens) (UniProt Q8NFQ8)	1 (yes)
C#C[C@H](O[Si](C#Cc1ccc(Oc2ccccc2)cc1)(C(C)C)C(C)C)c1ccccc1	Torsin-1A-interacting protein 2 (Homo sapiens) (UniProt Q8NFQ8)	0 (no)
C=CCNC(=O)[C@@H]1[C@H]2C(=O)O[C@H](c3ccccc3)[C@H](c3ccccc3)N2[C@H](c2ccccc2OCCO)[C@@]12C(=O)N(C(=O)OCCOC)c1ccccc12	Torsin-1A-interacting protein 2 (Homo sapiens) (UniProt Q8NFQ8)	0 (no)
C[N+](C)(C)CCCCNC(=O)[C@@H]1C[C@@H]2C(=O)N[C@@H](Cc3ccccc3)C(=O)N2[C@@H]1c1cccc(OCCO)c1	Torsin-1A-interacting protein 2 (Homo sapiens) (UniProt Q8NFQ8)	0 (no)
C=CCN1C(=O)[C@@]2(Cc3ccccc31)N=C(c1ccc(OCCCO)cc1)O[C@H]2c1ccccc1	Torsin-1A-interacting protein 2 (Homo sapiens) (UniProt Q8NFQ8)	1 (yes)
CCCCC(CC)C(O)C1C=CC2C(=O)N(Cc3ccccc3)C(=O)C2N1n1cnnc1 (centres undefined)	Torsin-1A-interacting protein 2 (Homo sapiens) (UniProt Q8NFQ8)	0 (no)
C=CCOC(=O)[C@@H]1[C@H]2C(=O)O[C@H](c3ccccc3)[C@H](c3ccccc3)N2[C@H](c2ccc(OCCOC(=O)[C@@H]3C[C@@H]4C(=O)NCC(=O)N4[C@@H]3c3ccc(O)cc3)cc2)[C@@]12C(=O)Nc1ccc(I)cc12	Torsin-1A-interacting protein 2 (Homo sapiens) (UniProt Q8NFQ8)	0 (no)
CN1C(=O)C2C=CC(C(O)c3ccc([N+](=O)[O-])cc3)N(N3CCCCC3)C2C1=O (centres undefined)	Torsin-1A-interacting protein 2 (Homo sapiens) (UniProt Q8NFQ8)	0 (no)
CN(C)CCCCCCNC(=O)[C@H]1C[C@H]2C(=O)N3CCC[C@H]3C(=O)N2[C@H]1c1ccc(O)cc1	Torsin-1A-interacting protein 2 (Homo sapiens) (UniProt Q8NFQ8)	0 (no)
O=C1NC(=O)C2C1C=CC(C(O)c1cc(C(F)(F)F)cc(C(F)(F)F)c1)N2Nc1ccccn1 (centres undefined)	Torsin-1A-interacting protein 2 (Homo sapiens) (UniProt Q8NFQ8)	0 (no)
O=C1O[C@@H](c2ccccc2)[C@@H](c2ccccc2)N2[C@@H](c3ccccc3OCCO)[C@]3(C(=O)Nc4ccc(C#CC5=CCCCC5)cc43)[C@@H](C(=O)N3CCCCCCC3)[C@H]12	Torsin-1A-interacting protein 2 (Homo sapiens) (UniProt Q8NFQ8)	1 (yes)
COC(=O)[C@@]1(Cc2ccccc2)N=C(c2ccc(OCCCO)cc2)O[C@H]1c1ccccc1	Torsin-1A-interacting protein 2 (Homo sapiens) (UniProt Q8NFQ8)	0 (no)
CCC(CC)C(O)C1C=CC2C(=O)NC(=O)C2N1Nc1ccc(Cl)cc1Cl (centres undefined)	Torsin-1A-interacting protein 2 (Homo sapiens) (UniProt Q8NFQ8)	1 (yes)
COC(=O)[C@]1(CCC(=O)OC(C)(C)C)N=C(c2ccc(OCCCO)cc2)O[C@@H]1c1ccccc1CN=[N+]=[N-]	Torsin-1A-interacting protein 2 (Homo sapiens) (UniProt Q8NFQ8)	0 (no)
O=C(NCCO)C1=C[C@H](Oc2ccccc2I)[C@@H](O)[C@H](N(Cc2ccco2)C(=O)Cc2ccccc2)C1	Torsin-1A-interacting protein 2 (Homo sapiens) (UniProt Q8NFQ8)	0 (no)
O=C1OCCC/C=C\[C@H]2OC34C=CCN(Cc5ccccc5)C(=O)[C@H]3N(CCCO)C(=O)[C@@H]4C12 (some centres undefined)	Torsin-1A-interacting protein 2 (Homo sapiens) (UniProt Q8NFQ8)	0 (no)
NCCCCCCNC(=O)[C@@H]1C[C@@H]2C(=O)NCC(=O)N2[C@@H]1c1ccc(O)cc1	Torsin-1A-interacting protein 2 (Homo sapiens) (UniProt Q8NFQ8)	0 (no)
CC(C)NC(=O)[C@@]1(c2ccc([N+](=O)[O-])cc2)CC(=O)N(C2CCCCC2)[C@@H]1c1ccc(CO)cc1I	Torsin-1A-interacting protein 2 (Homo sapiens) (UniProt Q8NFQ8)	0 (no)
COc1cc2c(cc1O)C(C1CC1)N(Cc1sc3ccccc3c1Cl)CC2 (centres undefined)	Torsin-1A-interacting protein 2 (Homo sapiens) (UniProt Q8NFQ8)	1 (yes)
[N-]=[N+]=NCc1ccccc1[C@@H]1OC(c2ccc(OCCCO)cc2)=N[C@]1(Cc1ccccc1)C(=O)NCC(O)CO (some centres undefined)	Torsin-1A-interacting protein 2 (Homo sapiens) (UniProt Q8NFQ8)	1 (yes)
C=CCC(OC(C)=O)[C@@H]1[C@@H](N(Cc2cc3ccccc3o2)C(=O)c2cccc3ccccc23)c2cc(OCCCO)ccc2N1C(=O)c1ccc(-c2ccccc2)cc1 (some centres undefined)	Torsin-1A-interacting protein 2 (Homo sapiens) (UniProt Q8NFQ8)	0 (no)
